test system: HT29 colon; experiment: NCI-60 one-dose screen, 48 h; settings: 10 µM unless noted
About 83,000 compounds went through this panel and 20% of them were active in at least one assay; those are over-represented in the sample as a whole. Calls of active or inactive are those of the source. The calls were made as follows: active = growth percent below 10; inactive = the rest.
# valid calls are Yes (active), No (inactive); nothing else

query: What classification did `O=C1c2c(c3c4cc(Br)ccc4[nH]c3c3ccc4ccccc4c23)C(=O)N1O` end up with in this test?
result: No

query: Try O=C(CC(O)c1ccccc1)Nc1ccccn1 (stereo not drawn) next.
result: No

query: Try `FC(F)(F)c1cc(CNc2ncc(Br)c(Cl)n2)cc(C(F)(F)F)c1` next.
result: No

query: Try `COc1cc(CNCCCN2C(=O)c3ccc4c5c(ccc(c35)C2=O)C(=O)N(CCCNCc2cc(OC)c(OC)c(OC)c2)C4=O)cc(OC)c1OC` next.
result: Yes

query: Try `CN1CCn2c(c(Sc3ccc(C(=O)NO)cc3)c3ccccc32)C1=O` next.
result: No

query: Try `C[C@]1(CO)C[C@@H](O)C[C@]2(C)[C@@H]1CC[C@@]13C[C@@H]4[C@@H](C[C@H]12)[C@]4(C)C3` next.
result: No

query: Try `Nc1cc(Br)c(-c2nnc(CCC(=O)c3nc4ccccc4[nH]3)o2)c(Br)c1` next.
result: No

query: Try CCC12CCC3c4ccc(O)cc4CCC3C1CC(O)C2O (stereo not drawn) next.
result: No

query: Try `O=c1[nH]c(=S)c2c(n1CCCO)CCC2` next.
result: No

query: Try `CCOC(=O)n1cc(C2=C(c3cn(C)c4ccccc34)COC2=O)c2ccccc21` next.
result: Yes

query: Try `c1ccc2cc(Cn3c(-c4ccc5ccccc5c4)[n+](Cc4ccc5ccccc5c4)c4ccccc43)ccc2c1` next.
result: Yes

query: Try `Clc1ccc(Nc2ccnc(N3CCN(c4ccnc5cc(Cl)ccc45)CC3)n2)cc1` next.
result: No

query: Try `O=C1N/C(=C\c2ccccc2)c2ncccc21` next.
result: No

====

test system: NCI-H322M lung; assay: NCI-60 one-dose screen, 48 h; conditions: 10 µM unless noted
This is part of a sample that, as a whole, favours compounds with a hit. Of some 83,000 tested, about 20% had one in any assay. Calls of active or inactive are those of the source. Rule for the calls: active = growth percent below 10; inactive = the rest.
# valid calls are 1 (yes) for active, 0 (no) for inactive; nothing else

query: What classification did `Clc1ccc2c(N3CCN(c4ccnc(NC5CCCCC5)n4)CC3)ccnc2c1` end up with in this test?
result: 0 (no)

query: Try `COc1ccc(C2OCC(C)(C)CO2)cc1OC` next.
result: 0 (no)

query: Try `O=C1C(Cl)=C(NCCCN2CCOCC2)C(=O)c2ccccc21` next.
result: 0 (no)

query: Try Cc1ccc(S(=O)(=O)N2CCc3ccc(O)c4c3C2CCc2ccccc2-4)cc1 (stereo not given) next.
result: 0 (no)

query: Try COc1cc(OCc2cccc(-c3ccc(C(O)c4nccs4)cc3)c2C)cc(OC)c1C=O (stereo not given) next.
result: 0 (no)

query: Try `COc1cccc(OC)c1OC(=O)c1ccccc1` next.
result: 0 (no)

query: Try COc1ccc(/C=N/NC(=O)c2cnn(CC(O)Cc3ccccc3)c2N)cc1OC1CCCC1 (stereo not given) next.
result: 0 (no)

query: Try `Cc1ccc(S(=O)(=O)N(c2ccc(Cl)cc2)c2ccc(Br)cc2C(=O)O)cc1` next.
result: 0 (no)

query: Try Cc1ccc(S(=O)(=O)N2CCc3ccc(O)c4c3C2Cc2cc(Cl)ccc2-4)cc1 (stereo not given) next.
result: 0 (no)

query: Try `COc1cc(C(=O)/C=C/c2c(-c3cccs3)nc3sccn23)cc(OC)c1OC` next.
result: 1 (yes)

query: Try `Clc1cccc(Cl)c1Nc1ccc2nnc(-c3ccncc3)n2n1` next.
result: 0 (no)

query: Try `Cc1nc(-c2ccccc2)cc2c(O)c(C(=O)N/N=C/Cc3ccccc3)[nH]c(=O)c12` next.
result: 0 (no)

query: Try `COc1ccccc1/C=C/C(=O)/C=C/c1ccccc1O` next.
result: 0 (no)

query: Try `COc1ccc(OC)c(/C=C2\Oc3cc(O)ccc3C2=O)c1` next.
result: 0 (no)

query: Try `Clc1ccc(Nc2ccnc(N3CCN(c4ccnc5cc(Cl)ccc45)CC3)n2)cc1` next.
result: 0 (no)

====

system: PC-3 prostate; experiment: NCI-60 one-dose screen, 48 h (100 = growth as untreated, 0 = no growth, -100 = all killed); settings: 10 µM unless noted
The panel holds about 83,000 compounds, 20% with a hit somewhere; the sample as a whole holds those more often. Calls of active or inactive are those of the source. Rule for the calls: active = growth percent below 10; inactive = the rest.
Assign growth to each entry below.

query: # query: growth of entry `FC(F)(F)c1cc(CNc2ncc(Br)c(Cl)n2)cc(C(F)(F)F)c1`
result: 92.2% (inactive)

query: Try `C=C1CC[C@@H]2[C@@](C)(CCC[C@]2(C)C(=O)O)[C@@H]1CC[C@H](CO)CCO` next.
result: 99.7% (inactive)

query: Try O=C1OCC2=C1C(c1ccc3c(c1)OCO3)CC(=O)N2c1cccc(Cl)c1 (stereo not drawn) next.
result: 102% (inactive)

query: Try `N#CCCN1CCN(CCC#N)C1=S` next.
result: 99.6% (inactive)

query: Try COc1cc(C2C3=C(COC3=O)N(CCO)c3cc4c(cc32)OCO4)cc(OC)c1O (stereo not drawn) next.
result: 29.5% (inactive)

query: Try `c1ccc2c(c1)oc1cc3c(cc12)nnc1cccn13` next.
result: 100% (inactive)

query: Try CCCCCn1c(=N)n(CC(O)COc2cccc(C)c2)c2ccccc21 (stereo not drawn) next.
result: 7.46% (active)

query: Try `CC(C)N1CCN(c2ccc(OC[C@H]3CO[C@](Cn4cncn4)(c4ccc(Cl)cc4Cl)O3)cc2)CC1` next.
result: 73.9% (inactive)

====

tested on: OVCAR-4 ovarian; assay: NCI-60 one-dose screen, 48 h; details: 10 µM unless noted
This is part of a sample that, as a whole, favours compounds with a hit. Of some 83,000 tested, about 20% had one in any assay. Activity calls are given as the source filed them. The calls were made as follows: active = growth percent below 10; inactive = the rest.
# valid calls are active, inactive; nothing else

query: What classification did `CCCCCCCCCCCC(=O)[O][Sn]([CH2]CCC)([CH2]CCC)[CH2]CCC` end up with in this test?
result: active

query: Try `O=C(C[Si](CC(=O)c1cccc(C(F)(F)F)c1)CC(=O)c1cccc(C(F)(F)F)c1)c1cccc(C(F)(F)F)c1` next.
result: inactive

query: Try `c1ccc(-c2nc(N3CCOCC3)c3c4c(sc3n2)CCCCCC4)nc1` next.
result: inactive

query: Try COc1cc(C2C3=C(COC3=O)N(CCO)c3cc4c(cc32)OCO4)cc(OC)c1O (centres undefined) next.
result: inactive

====

system: 786-0 renal; assay: NCI-60 one-dose screen, 48 h (100 = growth as untreated, 0 = no growth, -100 = all killed); details: 10 µM unless noted
About 83,000 compounds went through this panel and 20% of them were active in at least one assay; those are over-represented in the sample as a whole.
readout-kind: growth (%)
State the answer as a number, implicitly in %.

query: # query: growth of entry `Cc1nc2cc(Nc3nc(N4CCCCC4)nc(N4CCOCC4)n3)ccc2n1Cc1ccccc1`
result: 10.9

query: Try `COc1ccc(-c2nc(Nc3ccc(F)cc3)nc(Nc3ccc4c(c3)nc(C)n4Cc3ccccc3)n2)cc1` next.
result: 46.7

query: Try O=C1CCC(N2Cc3c(C#CCCCNC(=O)c4cc5c(o4)C(=O)c4ccccc4C5=O)cccc3C2=O)C(=O)N1 (stereo not drawn) next.
result: 49.7

====

Assign growth to each entry below.
system: HOP-62 NSCLC; assay: NCI-60 one-dose screen, 48 h (100 = growth as untreated, 0 = no growth, -100 = all killed); details: 10 µM unless noted
The panel holds about 83,000 compounds, 20% with a hit somewhere; the sample as a whole holds those more often.
State the answer as a number, implicitly in %.

query: # query: growth of entry `Cc1cc(=O)c2c(C)ccc(C)c2[nH]1`
result: 104

query: Try `COc1ccc(-c2nc3sc(C)nn3c2-c2nc3cc(C)c(C)cc3[nH]2)cc1` next.
result: 91.8

query: Try `COc1cc2nc(SCc3cc(OC)c(OC)c(OC)c3)n(-c3ccccc3OC)c(=O)c2cc1OC` next.
result: 93.2

query: Try COC1(OC)C2(Cl)C=C(c3ccccc3)C1(Cl)C(Cl)=C2Cl (centres undefined) next.
result: 93.9

====

test system: SW-620 colon; experiment: NCI-60 one-dose screen, 48 h; details: 10 µM unless noted
This is part of a sample that, as a whole, favours compounds with a hit. Of some 83,000 tested, about 20% had one in any assay. The source made the active and inactive calls. How the source made its calls: active means growth percent below 10; inactive means the rest.
# valid calls are active, inactive; nothing else

query: What classification did `O=C1/C(=C/c2ccc([N+](=O)[O-])cc2)Oc2ccc(O)cc21` end up with in this test?
result: inactive

query: Try `CN1CCC(OC2c3ccccc3CCc3ccccc32)CC1` next.
result: inactive

query: Try `O=[N+]([O-])c1ccc(O)c2ncccc12` next.
result: inactive

query: Try CCC12CCC3c4ccc(O)cc4CCC3C1CC(O)C2O (stereo not given) next.
result: inactive

query: Try O=C1CC2c3cc(-c4cc5ccccc5o4)ccc3CCN2C(=O)N1c1ccccc1 (stereo not given) next.
result: inactive

query: Try `Cc1nc2cc(Nc3nc(NCCO)nc(Nc4ccc(F)cc4)n3)ccc2n1Cc1ccccc1` next.
result: inactive

query: Try `COc1cccc(OC(=O)c2ccccc2)c1OC(=O)c1ccccc1` next.
result: inactive

query: Try `CCCCCCCC/C=C\CCCCCCCCOc1cccc(CC(=O)NCC[N+](C)(C)C)c1` next.
result: inactive

query: Try `Cc1ccc2c(N/N=C\c3ccco3)cc(C)nc2n1` next.
result: inactive

query: Try `NC(=S)N/N=C1\c2ccccc2-c2c(F)c(F)c(F)c(F)c21` next.
result: inactive

query: Try `COC(=O)CCC(=O)c1ccccc1` next.
result: inactive

query: Try `O=c1c2c(=NCCN3CCCC3)cc3c(=O)n(CCCN4CCOCC4)c(=O)c4ccc(c(O)n1CCCN1CCOCC1)c2c4-3` next.
result: active

query: Try `Cc1ccccc1-n1nnc(C(=O)Nc2ccc(-c3ccccc3)cn2)c1C` next.
result: inactive

query: Try `CC1(C)N=C(N)N=C(N)N1c1cccc(/C=C/C=C/c2cccc([N+](=O)[O-])c2)c1` next.
result: inactive

query: Try `C=CC(=O)N1CC2(CCC(n3nc(-c4ccc(Oc5ccccc5)cc4)c4c(N)ncnc43)CC2)C1` next.
result: active

query: Try COc1cccc(C2CC(=O)Nc3cc4c(cc32)CCC4)c1OC (stereo not given) next.
result: inactive

query: Try `O=C(O)c1ccccc1Oc1cc(-c2ccco2)nc(OCCBr)n1` next.
result: inactive

query: Try `O=c1c2c(=NCCN3CCCC3)cc3c(=O)n(CCCN4CCOCC4)c(=O)c4c(-c5ccc(CN6CCCC6)cc5)cc(c(O)n1CCCN1CCOCC1)c2c4-3` next.
result: active

query: Try `N#CCCN1CCN(CCC#N)C1=S` next.
result: inactive

query: Try `Cc1nc2cc(Nc3nc(N4CCCCC4)nc(N4CCOCC4)n3)ccc2n1Cc1ccccc1` next.
result: inactive

query: Try `Cc1nc2nc(C(F)(F)F)[nH]c2nc1C` next.
result: inactive

query: Try Cc1ccc(C2SCC(=O)N2NC(=O)c2[nH]c3ccc(F)cc3c2-c2ccccc2)cc1 (stereo not given) next.
result: inactive

query: Try `CCN1CCN(C(=S)SCC(=O)Nc2nc3ccc(OC)cc3s2)CC1` next.
result: inactive

query: Try `O=c1oc2ccccc2cc1-c1csc(N=Nc2c(O)[nH]c3ccc(Cl)cc23)n1` next.
result: inactive

query: Try `O=C(COc1ccc(/C=C2\CSc3ccccc3C2=O)cc1)c1ccc(Cl)cc1` next.
result: inactive

query: Try `COc1cc(CNCCN2C(=O)c3ccc4c5c(ccc(c35)C2=O)C(=O)N(CCNCc2cc(OC)c(OC)c(OC)c2)C4=O)cc(OC)c1OC` next.
result: active

query: Try `Brc1ccccc1Nc1ccc2nnc(-c3ccncc3)n2n1` next.
result: inactive

query: Try CC(C)(C)[Si](C)(C)OC1[C@@H](COC(=O)NC(=O)CCl)O[C@@H](n2cnc3c(N)ncnc32)[C@H]1O[Si](C)(C)C(C)(C)C (stereo not given in full) next.
result: active

query: Try `O=c1onc(-c2ccccc2)c2ccccc12` next.
result: inactive

query: Try `O=C1Nc2ccc(Cl)cc2/C1=N/N=C(c1ccccc1)c1ccccc1` next.
result: inactive

Just for reference, PubChem BioAssay (NCI) is where these values come from.
